# targetEntity: T1, human EpCAM expressed on cells (CHO, Colo205, 293) (human, UniProt P16422 24-314)
# T1 construct: whole, on cells; also called CHO cells expressing human EpCAM; Colo205 cells expressing human EpCAM
# T1 sequence (looked up): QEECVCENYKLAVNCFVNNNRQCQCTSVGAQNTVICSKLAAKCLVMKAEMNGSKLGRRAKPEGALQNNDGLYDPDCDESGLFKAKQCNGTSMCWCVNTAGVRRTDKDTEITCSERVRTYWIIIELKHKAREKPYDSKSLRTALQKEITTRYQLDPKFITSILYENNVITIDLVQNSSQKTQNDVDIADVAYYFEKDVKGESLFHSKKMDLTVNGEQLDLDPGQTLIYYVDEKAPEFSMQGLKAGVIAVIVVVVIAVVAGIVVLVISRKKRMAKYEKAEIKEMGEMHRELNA
# experimentSummary: FACS of MMAE conjugates on Colo205 cells expressing human EpCAM, pH 6.0

| binder | EC50 / µg/mL |
| --- | --- |
| BA-105.4-01-02 8316-vcMMAE (antibody, V domains shown, antibody conjugated to vcMMAE; chain and residues of attachment not stated) VH: EVQLVQSGAEVKKPGESLRISCKGSGYTFTSYWMHWIRQSPSRGLEWLGYIRPSTGYTEYNQKFKDRVTISADKSISTAYLQWSSLKASDTAMYYCGRGDNWVGFANWGQGTLVTVSS VL: EIVLTQSPDFQSVTPKEKVTITCSASSSISYMHWYQQKPGKAPKLLIYSTSNLASGVPDRFSGSGSGTDFTLKISRVEAEDVGVYYCHQWSTYETFGQGTKVEIK | 0.15 |
